Parameter 'readout' = GI50; parameter 'system' = MDA-MB-435.

Smiles string: CCN(CC)CCOc1ccc(/C(=C(\C)Cc2ccc(OC)cc2)c2ccc(OC(=O)NCc3ccccc3)cc2)cc1
GI50: 1.86 µM
//
Smiles string: COc1cc(/C=C/C(=O)c2ccc(Nc3ncnc4ccccc34)cc2)cc(OC)c1
GI50: 1.8 µM
//
Smiles string: S=c1nc2[nH]ncc2c(N/N=C/c2ccccc2)[nH]1
GI50: > 100 µM
//
Smiles string: N=C(N)c1ccc(-c2ccc(-c3ccc(Cl)cc3)o2)o1
GI50: 1.36 µM
//
Smiles string: O=C(Nc1ccccc1)Nc1cccc(-n2cc(-c3ccncc3)c(-c3ccc(O)c(Cl)c3)n2)c1
GI50: 3.03 µM
//
Smiles string: Cc1ccc(S(=O)(=O)/N=c2\ssc(Nc3ccccc3)c2Cl)cc1
GI50: 8.41 µM
//
Smiles string: Cc1n[nH]c(=S)n1/N=C/c1ccc(F)c(Oc2ccccc2)c1
GI50: 28.6 µM

* * *

Non-standard residues stand in square brackets, D forms with d. Residues, ends and D or L forms follow the SMILES beside them. ξ: configuration not given here. *: point of attachment. Boc = CC(C)(C)OC(=O)*; ξV = CC(C)C(N)C(=O)O; OBn = c1ccc(CO*)cc1
Form: system (786-0 renal), quantity (GI50), values below.
Readout type: GI50

Compound: CCCc1cc2cc(-n3nc(C)c4c3CC(C)(C)CC4=O)cc(NC3CCC(O)CC3)c2c(=O)[nH]1 (configuration not stated)
Test value: 874 nM
--
Compound: CC(C)C(NC(=O)OC(C)(C)C)C(=O)NCC(=O)OCc1ccccc1 (configuration not stated) (Boc-[ξV]-Gly-OBn)
Test value: 24 µg/mL
--
Compound: COc1ccc(/C=C2\CN(Cc3cn(CCCNc4ccnc5cc(Cl)ccc45)nn3)C/C(=C\c3ccc(OC)c(OC)c3)C2=O)cc1OC
Test value: 1950 nM
--
Compound: COc1cc2ccc3c4c(OC)cc(OC)c(OC)c4c(=O)n(C)c3c2cc1OC
Test value: 1780 nM
--
Compound: COc1cc(/C=C/C(=O)c2ccc(Nc3ncnc4ccccc34)cc2)cc(OC)c1
Test value: 4200 nM
--
Compound: S=c1nc2[nH]ncc2c(N/N=C/c2ccccc2)[nH]1
Test value: > 100000 nM
--
Compound: Cc1cccc2c(N=Nc3ccc(S(N)(=O)=O)cc3)c(O)[nH]c12
Test value: > 25000 nM

* * *

tested on: ACHN renal; test: NCI tumour cell line growth inhibition, 48 h
Readout type: TGI

Molecule: O=C1OCC2(CO1)CC1C=CC2C1 (configuration not stated)
Test value: > 100 µM
//
Molecule: COc1ccc(N=C2C(=O)C3=C(OC(C)(C)CC3)c3ccccc32)cc1
Test value: 1.57 µM
//
Molecule: O=C(C#CP(=O)(O)c1ccccc1)c1ccccc1
Test value: > 100 µM
//
Molecule: CCCN1CN(C(C(=O)N[C@@H]2C(=O)N3C2SC(C)(C)C3C(=O)O)c2ccccc2)CSC1=S (some centres not stated)
Test value: > 100 µM
//
Molecule: CC(=O)OCc1cc(OC(C)=O)cnc1COC(C)=O
Test value: > 100 µM
//
Molecule: Nc1cc2c3c(cccc3c1)C(=O)N(c1ccc(OCCN3CCCCC3)cc1)C2=O
Test value: 29.4 µM
//
Molecule: Cc1cc2c(c(C=Nc3ccc([N+](=O)[O-])cc3)c1)OC1(C=C2)Oc2ccccc2C(=O)N1C (configuration not stated)
Test value: 50.5 µM
//
Molecule: CC1(C)CC[C@]2(C(=O)O)CC[C@]3(C)C(=CC[C@@H]4[C@@]5(C)C[C@H](O)[C@H](O)[C@@](C)(CO)C5=CC[C@]43C)[C@@H]2C1
Test value: > 100 µM
//
Molecule: CCOC(=O)c1nc2ccccc2nc1NCc1ccc(OC)cc1
Test value: > 100 µM
//
Molecule: CC(=O)OCC1OC(n2c(C)c(N=Nc3ccccc3)c(C)c(C#N)c2=S)C(OC(C)=O)C(OC(C)=O)C1OC(C)=O (configuration not stated)
Test value: > 100 µM
//
Molecule: O=C(O)c1ccc(O)c(N=Nc2cc(S(=O)(=O)O)c3ccccc3c2O)c1
Test value: > 100 µM
//
Molecule: NCCNc1nc(N2CCCC2)c2nc(Cl)c(NCc3ccccc3)nc2n1
Test value: 3.99 µM
//
Molecule: N#CC(=S)Nc1ccc(Cl)c(Cl)c1
Test value: 82.5 µM
//
Molecule: C=C1C[C@@H](O)[C@@H](Br)C(C)(C)[C@]12CCC(C)(Cl)C(Br)C2 (some centres not stated)
Test value: > 87.5 µM
//
Molecule: Cn1c(=O)[nH]c2[nH]c3ccccc3c2c1=O
Test value: > 100 µM
//
Molecule: Clc1cc(Cl)c(Cl)c(-c2nc(-c3cccnc3)cs2)c1
Test value: 72.3 µM
//
Molecule: CCOC(=O)n1[nH]c(=O)n(-c2ccccc2)c1=O
Test value: > 100 µM

* * *

Recorded measurements of TGI, one per entry
test system: HCT-116 colon; test: NCI tumour cell line growth inhibition, 48 h
Where a SMILES comes first, the peptide text is derived from it. [ ]: non-standard residue; d: D form. The star is where a group is joined. ξ: configuration not given here. dThr(3ξ) = CC(O)[C@@H](N)C(=O)O; dNMeL = CN[C@H](CC(C)C)C(=O)O; OBn = c1ccc(CO*)cc1; ξLac = CC(O)C(=O)O

Molecule: CC1(C)CC(=O)C2=C(C1)NC(SSC1=C(C#N)C(c3ccc(F)cc3)C3=C(CC(C)(C)CC3=O)N1)=C(C#N)C2c1ccc(F)cc1 (stereo unspecified)
TGI: 47.3 µg/mL

Molecule: CN[C@]12CC3(C=CC(=O)C=C3)O[C@@]1(Cc1ccc(OC)cc1)N(C)C(=O)N2
TGI: 7.98 µM

Molecule: NC(=O)N/N=C(\C(=O)C(=O)Nc1ccc(Cl)c(C(F)(F)F)c1)c1nc2ccc(C(=O)c3ccccc3)cc2[nH]c1=O
TGI: > 100 µM

Molecule: N[C@H]1CCN(c2c(F)cc3c(=O)c(C(=O)O)cn4c3c2Oc2cc3c(ccc5ccccc53)cc2-4)C1
TGI: > 100 µM

Molecule: COc1ccc(-c2c(C#N)c(-c3ccc(C)cc3)n(NS(=O)(=O)c3ccccc3)c(=O)c2C#N)cc1
TGI: > 100 µM

Molecule: O=C1CC(CC(O)C(O)C(O)CO)CC(=O)N1 (stereo unspecified)
TGI: > 100 µM

Molecule: CN(c1ccccc1)S(=O)(=O)c1ccccc1[N+](=O)[O-]
TGI: > 100 µM

Molecule: Cc1n[nH]c(=S)n1/N=C/c1ccc(F)c(Oc2ccccc2)c1
TGI: > 100 µM

Molecule: CCCCCC(O)[C@H]1C(=O)C[C@@H](O[Si](C)(C)C(C)(C)C)[C@@H]1/C=C/CCOCc1ccccc1 (stereo partly specified)
TGI: > 45.5 µM

Molecule: CCOC(=O)c1c(C)nc2ccc(Cl)cc2c1-c1ccccc1
TGI: 28.8 µM

Molecule: COc1c2c(cc3c1C(O)N1CC[C@]34[C@H]3O[C@H]3[C@H](OC)C[C@@H]14)OCO2 (stereo partly specified)
TGI: > 100 µM

Molecule: Cc1ccc(S(=O)(=O)OC2=C/C(=N\c3onc(C)c3C)c3ccccc3C2=O)cc1
TGI: 37.7 µM

Molecule: COC(=O)[C@@H]1C[C@H]([Se]c2ccccc2)CN1S(=O)(=O)c1ccc(C)cc1
TGI: > 100 µM

Molecule: O=C(/C=C\c1cccc2ccccc12)c1cccs1
TGI: 10.7 µM

Molecule: Cc1ccccc1NC(=O)C(=O)C(c1cnc2ccc([N+](=O)[O-])cc2n1)[N+](=O)[O-] (stereo unspecified)
TGI: > 100 µM

Molecule: CC(=O)OC1CC(O)CC2=CCC3C4CCC(C(C)(O)C(O)CC5COC(=O)C5C)C4(C)CCC3C21C (stereo unspecified)
TGI: > 25 µM

Molecule: CC#CS(=O)(=O)c1ccccc1
TGI: 17.6 µM

Molecule: O=C(c1cccc(OCc2ccccc2)c1OCc1ccccc1)N1CCSC1=S
TGI: > 100 µM

Molecule: Oc1ccc(CNCc2ccccc2)c2cccnc12
TGI: > 100 µM

Molecule: N#CC(c1ccccc1)N1CCCN(C(C#N)c2ccccc2)C1c1ccccc1O (stereo unspecified)
TGI: > 100 µM

Molecule: CC(=O)OCCCCn1cnc2nc(Nc3ccccc3)nc(Cl)c21
TGI: > 100 µM

Molecule: CCOC(=O)C(Cc1ccccc1)NC(=O)c1ccc(N=NN(C)C)cc1 (stereo unspecified)
TGI: > 100 µM

Molecule: CC(=O)OC(C)[C@@H](NC(=O)[C@@H](CC(C)C)N(C)C(=O)[C@@H]1CCCN1C(=O)C(C)O)C(=O)OCc1ccccc1 (stereo partly specified) (H-[ξLac]P[dNMeL][dThr(3ξ)](Ac)-OBn)
TGI: > 100 µM

Molecule: C/C=C/C=N/N(C(=O)c1cc([N+](=O)[O-])cc([N+](=O)[O-])c1)C1=NC(c2ccccc2)C(c2ccccc2)=NN1 (stereo unspecified)
TGI: 84.8 µM

Molecule: CS(=O)(=O)c1nc(-c2cc3c(c(S(C)(=O)=O)n2)CCCC3)cc2c1CCCC2
TGI: > 100 µM

Molecule: OCC1OC(Oc2cc(O)cc(/C=C\c3ccc(O)cc3)c2)C(O)C(O)C1O (stereo unspecified)
TGI: > 100 µM

Molecule: CC(=O)NC(CCCCNC(=O)N(CCCl)N=O)C(=O)NCc1ccccc1 (stereo unspecified)
TGI: > 100 µM

Molecule: COC(=O)C1Cc2cccc(C)c2C1 (stereo unspecified)
TGI: > 100 µM

Molecule: CCOC(=O)/C(=C\NCC(OCC)OCC)c1nc2ccccc2[nH]1
TGI: > 100 µM

Molecule: O=C1CCCC2=C(N1)C(=O)C=CC2=O
TGI: 49.1 µM

Molecule: O=C1C2=Cc3ccccc3OC2(O)Oc2cc(O)ccc21 (stereo unspecified)
TGI: > 100 µM

Molecule: COc1[nH]c(C(Cl)(Cl)Cl)c(Cl)c(=O)c1Cl
TGI: > 100 µM

Molecule: CN(C)CCCN(c1nc(C(Cl)(Cl)Cl)ns1)c1nc(C(Cl)(Cl)Cl)ns1
TGI: 3.34 µM

Molecule: N=C1N(c2ccccc2)C(=O)C23CCCC2C13N1CCOCC1 (stereo unspecified)
TGI: > 100 µM

Molecule: CC1(C)C=C(/C=N/Nc2ccc([N+](=O)[O-])cc2)C(C#N)=C(O)C1(C#N)C#N
TGI: > 100 µM

Molecule: c1cc(OCCN2CCCCCC2)ccc1CNc1ccc2nc(CCC3CCCCC3)[nH]c2c1
TGI: 3.14 µM
